Test: LNP size, PDI and zeta potential by Dynamic Light Scattering (Method A)
Type: physicochemical
Conditions: LNP formulated with the lipid, DLS
Method: The synthesized lipids were tested in term of in vitro transfection efficacy and toxicity on HeLa cells. In order to perform the mentioned biological tests, appropriate LNPs had to be formulated from the synthesized lipids. The formulation technique was different in Method A and B. The particle size, polydispersity index (PDI) and zeta potential of resulting LNPs were determined by means of Dynamic Light Scattering technique (DLS). […]
compounds and their reported Zeta potential (mV)
Lab book: enter the figure in mV, no units written.

Solved cases (3 shown):
CCCCCCCC/C=C\CCCCCCCCOC(CCCCCCC/C=C\CCCCCCCC)O[Si](C)(C)OCCCCCCN(C)[C@H](CO)Cc1ccccc1 (stereo partly shown)	−19.77
CCCCCCCC/C=C\CCCCCCCCOC(=O)C(C)(C)CC(OCCCCCCCC/C=C\CCCCCCCC)O[Si](C)(C)OCCCCCCN1CCOCC1 (stereo not shown)	−14.54
CCCCCCCC/C=C\CCCCCCCC(OCCCCCCCCCCCCCCC(C)C)O[Si](C)(C)OCCCCCCN(CCO)CCO (stereo not shown)	−19.39

Problem: Fill in: Zeta potential (mV) of C#CCN(C)CCCCCCO[Si](C)(C)OC(CC(C)(C)C(=O)OCCCCCCCC/C=C\CCCCCCCC)OCCCCCCCC/C=C\CCCCCCCC (stereo not shown) is ___
Solution: −22.01

Problem: Fill in: Zeta potential (mV) of CCCCCCCC/C=C\CCCCCCCC(OCCC(C)CCCC(C)CCCC(C)CCCC(C)C)O[Si](C)(C)OCCCCCCN(CCO)CCO (stereo not shown) is ___
Solution: −13.40

Problem: Fill in: Zeta potential (mV) of CCCCCCCCCCCCCCCCOC(CCCCCCCCCCCCCCC)O[Si](C)(C)OCCCCCCN(CCO)CCO (stereo not shown) is ___
Solution: −12.77

Problem: Fill in: Zeta potential (mV) of CCCCC/C=C\C/C=C\CCCCCCCCO[Si](C)(C)OC(CCCCCCC/C=C\C/C=C\CCCCC)OCCCN(C)C (stereo not shown) is ___
Solution: −26.51

* * *

compounds and their reported Cell Viability % (Average metabolic rate over all doses, Resazurin)
System: HeLa cells
Assay: Cell viability assessment with resazurin assay (Method A)
Type: cell-based
Settings: human
Lab book: enter the figure in %, no units written.

CCCCC/C=C\C/C=C\CCCCCCCCO[Si](C)(C)OC(CCCCCCC/C=C\C/C=C\CCCCC)OCCCN(C)C (centres unmarked) [Example 80]	99
CCCCCCCC/C=C\CCCCCCCC(OCCC(C)CCCC(C)CCCC(C)CCCC(C)C)O[Si](C)(C)OCCCCCCN(CCO)CCO (centres unmarked) [Example 75]	120
CCCCC/C=C\C/C=C\CCCCCCCCOC(CCCCCCC/C=C\C/C=C\CCCCC)O[Si](C)(C)OCCCCCCN1CCCCC1CO (centres unmarked) [Example 64]	100

Problem: Fill in: Cell Viability % (Average metabolic rate over all doses, Resazurin) of CCCCC/C=C\C/C=C\CCCCCCCCO[Si](C)(C)OC(CCCCCCC/C=C\C/C=C\CCCCC)OCCCCCCN(CCO)CCO (centres unmarked) [Example 40] is ___
Solution: 100

Problem: Fill in: Cell Viability % (Average metabolic rate over all doses, Resazurin) of CCCCC/C=C\C/C=C\CCCCCCCCOC(CCCCCCC/C=C\C/C=C\CCCCC)O[Si](C)(C)O[Si](C)(C)CCCCCCN(CCO)CCO (centres unmarked) [Example 82] is ___
Solution: 97

Problem: Fill in: Cell Viability % (Average metabolic rate over all doses, Resazurin) of CCCCCCCC/C=C\CCCCCCCCOC(=O)C(C)(C)CC(OCCCCCCCC/C=C\CCCCCCCC)O[Si](C)(C)OCCCCCCN(C)CC(O)CO (centres unmarked) [Example 92] is ___
Solution: 111

Problem: Fill in: Cell Viability % (Average metabolic rate over all doses, Resazurin) of CCCCC/C=C\C/C=C\CCCCCCCCOC(CCCCCCC/C=C\C/C=C\CCCCC)O[Si](C)(C)OCCCCCCN1CCN(CCO)CC1 (centres unmarked) [Example 58] is ___
Solution: 97

Problem: Fill in: Cell Viability % (Average metabolic rate over all doses, Resazurin) of CCCCCCCC/C=C\CCCCCCCCOC(=O)C(C)(C)CC(OCCCCCCCC/C=C\CCCCCCCC)O[Si](C)(C)OCCCCCCN(CCO)CCO (centres unmarked) [Example 84] is ___
Solution: 114

Problem: Fill in: Cell Viability % (Average metabolic rate over all doses, Resazurin) of CCCCC/C=C\C/C=C\CCCCCCCCO[Si](C)(C)OC(CCCCCCC/C=C\CCCCCCCC)OCCCN(C)C (centres unmarked) [Example 81] is ___
Solution: 100

Problem: Fill in: Cell Viability % (Average metabolic rate over all doses, Resazurin) of CCCCCCCC/C=C\CCCCCCCCOC(CCCCCCC/C=C\CCCCCCCC)O[Si](C)(C)OCCCCCCN(C)[C@H](CO)Cc1ccccc1 (some centres unmarked) [Example 78] is ___
Solution: 121

Problem: Fill in: Cell Viability % (Average metabolic rate over all doses, Resazurin) of CCCCC/C=C\C/C=C\CCCCCCCCOC(CCCCCCC/C=C\C/C=C\CCCCC)O[Si](C)(C)OCCCCCCN(C)C (centres unmarked) [Example 79] is ___
Solution: 91

Problem: Fill in: Cell Viability % (Average metabolic rate over all doses, Resazurin) of CCCCCCCC/C=C\CCCCCCCCOC(=O)C(C)(C)CCC(OCCCCCCCC/C=C\CCCCCCCC)O[Si](C)(C)OCCCCCCN(CCO)CCO (centres unmarked) [Example 94] is ___
Solution: 101

Problem: Fill in: Cell Viability % (Average metabolic rate over all doses, Resazurin) of CCCCC/C=C\C/C=C\CCCCCCCCOC(CC[C@@H](C)C1CCC2C3CCC4C[C@H](OC)CC[C@]4(C)C3CC[C@@]21C)O[Si](C)(C)OCCCCCCN(CCO)CCO (some centres unmarked) [Example 52] is ___
Solution: 95

Problem: Fill in: Cell Viability % (Average metabolic rate over all doses, Resazurin) of C#CCN(C)CCCCCCO[Si](C)(C)OC(CCCCCCC/C=C\C/C=C\CCCCC)OCCCCCCCC/C=C\C/C=C\CCCCC (centres unmarked) [Example 67] is ___
Solution: 94
